Source listed as IntAct's records for PubMed 24879152.

B1: Next to BRCA1 gene 1 protein (Homo sapiens), Q14596 (parent)
chain: MEPQVTLNVTFKNEIQSFLVSDPENTTWADIEAMVKVSFDLNTIQIKYLDEENEEVSINSQGEYEEALKMAVKQGNQLQMQVHEGHHVVDEAPPPVVGAKRLAARAGKKPLAHYSSLVRVLGSDMKTPEDPAVQSFPLVPCDTDQPQDKPPDWFTSYLETFREQVVNETVEKLEQKLHEKLVLQNPSLGSCPSEVSMPTSEETLFLPENQFSWHIACNNCQRRIVGVRYQCSLCPSYNICEDCEAGPYGHDTNHVLLKLRRPVVGSSEPFCHSKYSTPRLPAALEQVRLQKQVDKNFLKAEKQRLRAEKKQRKAEVKELKKQLKLHRKIHLWNSIHGLQSPKSPLGRPESLLQSNTLMLPLQPCTSVMPMLSAAFVDENLPDGTHLQPGTKFIKHWRMKNTGNVKWSADTKLKFMWGNLTLASTEKKDVLVPCLKAGHVGVVSVEFIAPALEGTYTSHWRLSHKGQQFGPRVWCSIIVDPFPSEESPDNIEKGMISSSKTDDLTCQQEETFLLAKEERQLGEVTEQTEGTAACIPQKAKNVASERELYIPSVDLLTAQDLLSFELLDINIVQELERVPHNTPVDVTPCMSPLPHDSPLIEKPGLGQIEEENEGAGFKALPDSMVSVKRKAENIASVEEAEEDLSGTQFVCETVIRSLTLDAAPDHNPPCRQKSLQMTFALPEGPLGNEKEEIIHIAEEEAVMEEEEDEEDEEEEDELKDEVQSQSSASSEDYIIILPECFDTSRPLGDSMYSSALSQPGLERGAEGKPGVEAGQEPAEAGERLPGGENQPQEHSISDILTTSQTLETVPLIPEVVELPPSLPRSSPCVHHHGSPGVDLPVTIPEVSSVPDQIRGEPRGSSGLVNSRQKSYDHSRHHHGSSIAGGLVKGALSVAASAYKALFAGPPVTAQPIISEDQTAALMAHLFEMGFCDRQLNLRLLKKHNYNILQVVTELLQLNNNDWYSQRY

Variants of: B1
details: with gsk3a_human GSK3A

| mutations | effect of a mutation on the interaction |
| --- | --- |
| S590A | with no effect |
| T586A | with no effect |
| T586A;S590A | with no effect |
